Experiment: Log P by HPLC on reversed phase columns (EEC directive 79/831 Annex V.A8; methods [a], [b], [c])
Type: physicochemical
READOUT_TYPE: LogP

{"COMPOUND": "CN(C)C(=O)OC(Cn1cncc1C#N)c1ccc(Oc2ccc(Br)cc2)cc1C(F)(F)F (centres unmarked)", "LogP": "3.85^[a]"}

Consider the following items and state reported LogP for each.
1. N#Cc1cncn1CC(O)c1ccccc1Br (centres unmarked)
2. N#Cc1cncn1CC(O)c1ccc(Oc2ccc(Cl)cc2)cc1C(F)F (centres unmarked)

Found:
1.62^[a]
3.09^[a]

* * *

Record form. Attribute: LogP. Fill in for each entry.
Test: Log P by HPLC on reversed phase columns (EEC directive 79/831 Annex V.A8; methods [a], [b], [c])
Type: physicochemical

Record excerpt, results attached:
{"MOLECULE": "CC(C)CCCC(O)(Cn1cncc1C#N)C1(Cl)CC1 (stereo not drawn)", "READOUT_TYPE": "LogP", "VALUE_OBSERVED": "3.33^[a]"}
{"MOLECULE": "N#Cc1cncn1CC(O)(c1ccc(F)c(Br)c1F)C1(F)CC1 (stereo not drawn)", "READOUT_TYPE": "LogP", "VALUE_OBSERVED": "2.35^[a]"}
{"MOLECULE": "N#Cc1cncn1CC(O)(C#CC1CCCC1)CC1CC1 (stereo not drawn)", "READOUT_TYPE": "LogP", "VALUE_OBSERVED": "2.62^[a]"}
{"MOLECULE": "N#Cc1cncn1CC(O)c1ccc(Oc2ccc(C(F)(F)F)cc2)nc1C(F)(F)F (stereo not drawn)", "READOUT_TYPE": "LogP", "VALUE_OBSERVED": "3.13^[a]"}

Consider the following items and state reported LogP for each.
1. N#Cc1cncn1CC(O)c1ccc(Oc2ccc(Cl)cc2)cc1F (stereo not drawn)
2. CC(O)(Cn1cncc1C#N)c1ccc(Oc2ccc(Br)nc2)nc1C(F)(F)F (stereo not drawn)
3. N#Cc1cncn1CC(O)(c1c(F)cc(F)cc1Cl)C1(F)CC1 (stereo not drawn)
4. N#Cc1cncn1CC(O)(c1ccc(Cl)cc1Br)C1(F)CC1 (stereo not drawn)
5. CC(O)(Cn1cncc1Cl)c1ccc(Oc2ccc(Cl)cc2)cc1C(F)(F)F (stereo not drawn)
6. CC(O)(Cn1cncc1C(F)(F)F)c1ccc(Oc2ccc(Cl)cc2)cc1F (stereo not drawn)
7. CCOC(Cn1cncc1Br)c1ccc(Oc2ccc(Cl)cc2)cc1Br (stereo not drawn)

Found:
1. 2.94^[a]
2. 2.44^[a]
3. 2.23^[a]
4. 2.66^[a]
5. 2.80^[a]
6. 3.83^[a]
7. 3.99^[a]

Consider the following items and state reported LogP for each.
1. CCCCC(O)(Cn1cncc1C#N)c1ccc(Cl)cc1Cl (stereo not drawn)
2. OC(Cn1cncc1Br)c1ccc(Oc2ccc(I)cc2)cc1Br (stereo not drawn)
3. CC(O)(Cn1cncc1Cl)c1ccc(Oc2ccc(I)cc2)cc1Cl (stereo not drawn)

Found:
1: 3.41^[a]; 2: 2.78^[a]; 3: 3.04^[a]

Consider the following items and state reported LogP for each.
1. N#Cc1cncn1CC(O)(c1cc(F)ccc1F)C1(F)CC1 (stereo not drawn)
2. CCCC(O)(Cn1cncc1C#N)c1ccc(Cl)cc1 (stereo not drawn)
3. OC(Cn1cncc1F)c1ccc(Oc2ccc(Br)cc2)nc1C(F)(F)F (stereo not drawn)
4. N#Cc1cncn1CC(O)(c1cc(Cl)c(F)c(Cl)c1)C1(F)CC1 (stereo not drawn)
5. C=CCC(O)(Cn1cncc1C#N)C1(Cl)CC1 (stereo not drawn)
6. CCOC(Cn1cncc1C#N)c1ccc(Oc2ccc(Cl)cc2)cc1C(F)(F)F (stereo not drawn)
7. CC(=O)c1cncn1CC(C)(O)c1ccc(Oc2ccc(C(F)(F)F)cc2)cc1C(F)(F)F (stereo not drawn)

Found:
1: 2.02^[a]; 2: 2.39^[a]; 3: 2.28^[a]; 4: 2.74^[a]; 5: 1.98^[a]; 6: 4.54^[a]; 7: 3.27^[a]

* * *

Assay: Log P by HPLC on reversed phase columns (EEC directive 79/831 Annex V.A8; methods [a], [b], [c])
Format: physicochemical
Record form. Attribute: LogP. Fill in for each entry.

Record excerpt, results attached:
{"MOLECULE": "CCC(O)(Cn1cncc1C#N)c1ccc(Cl)cc1Cl (centres unmarked)", "VALUE_OBSERVED": "2.66^[a]"}
{"MOLECULE": "N#Cc1cncn1CC(O)(c1c(F)ccc(Cl)c1F)C1(F)CC1 (centres unmarked)", "VALUE_OBSERVED": "2.28^[a]"}
{"MOLECULE": "Cn1ccc2cc(C(O)(Cn3cncc3C#N)CC(C)(C)C)ccc21 (centres unmarked)", "VALUE_OBSERVED": "2.94^[a]"}
{"MOLECULE": "OC(Cn1cncc1Cl)c1ccc(Oc2ccc(OC(F)(F)F)cc2)c(Br)c1 (centres unmarked)", "VALUE_OBSERVED": "2.82^[a]"}
{"MOLECULE": "N#Cc1cncn1CC(O)(CC1CCCCC1)c1ccc(Cl)cc1F (centres unmarked)", "VALUE_OBSERVED": "3.80^[a]"}

Consider the following items and state reported LogP for each.
1. CC(C)(C)CC(O)(Cn1cncc1C#N)c1ccccc1F (centres unmarked)
2. CC(C)C(O)(Cn1cncc1C#N)c1ccc(Cl)cc1Br (centres unmarked)
3. N#Cc1cncn1CC(O)(c1cc(F)c(Cl)cc1F)C1(Cl)CC1 (centres unmarked)
4. N#Cc1cncn1CC(O)(c1cc(Cl)c(F)cc1Br)C1(F)CC1 (centres unmarked)

Found:
["2.92^[a]", "3.02^[a]", "2.66^[a]", "2.61^[a]"]

* * *

Record form. Attribute: LogP. Fill in for each entry.
Assay: Log P by HPLC on reversed phase columns (EEC directive 79/831 Annex V.A8; methods [a], [b], [c])
Format: physicochemical

{"COMPOUND": "N#Cc1cncn1CC(O)(c1ccc(Cl)cc1Cl)C1(Cl)CC1 (centres unmarked) [I-235]", "LogP": "2.67^[a]"}
{"COMPOUND": "OC(Cn1cncc1Cl)c1ccc(Oc2ccc(Br)cc2)cc1Br (centres unmarked) [I-45]", "LogP": "2.71^[a]"}
{"COMPOUND": "N#Cc1cncn1CC(O)(C#CCC(Cl)CCl)C1(F)CC1 (centres unmarked) [I-604]", "LogP": "2.08^[a]"}

Consider the following items and state reported LogP for each.
1. CC(O)(Cn1cncc1Cl)c1cnc(Oc2ccc(Cl)cc2)cc1C(F)(F)F (centres unmarked) [I-175]
2. OC(Cn1cncc1F)c1ccc(Oc2ccc(C(F)F)cc2)nc1C(F)(F)F (centres unmarked) [I-148]
3. OC(Cn1cncc1Br)c1ccc(Oc2ccc(Cl)cc2)cc1C(F)(F)F (centres unmarked) [I-29]
4. OC(Cn1cncc1F)c1ccc(Oc2ccc(S(F)(F)(F)(F)F)cc2)nc1C(F)(F)F (centres unmarked) [I-147]
5. N#Cc1cncn1CC(O)(c1cc(Cl)c(F)cc1F)C1(Cl)CC1 (centres unmarked) [I-586]

Found:
["2.62^[a]", "2.20^[a]", "2.84^[a]", "2.59^[a]", "2.61^[a]"]

* * *

Record form. Attribute: chromatographic logP. Fill in for each entry.
Assay: Log P by HPLC on reversed phase columns (EEC directive 79/831 Annex V.A8; methods [a], [b], [c])
Assay type: physicochemical
Settings: reversed phase HPLC column; method [a]: LC-UV, acidic range, 0.1% formic acid in water and acetonitrile as eluent (linear gradient from 10% to 95% acetonitrile)
One number for each entry.

{"COMPOUND": "N#Cc1cncn1CC(=O)c1ccc(Oc2ccc(C(F)(F)F)nc2)nc1C(F)(F)F [IX-131]", "chromatographic logP": 2.92}
{"COMPOUND": "O=C(Cn1cncc1Br)c1ccc(Oc2ccc(Cl)cc2)cc1 [IX-22]", "chromatographic logP": 2.63}
{"COMPOUND": "O=C(Cn1cncc1Br)c1ccc(Oc2ccc(C(F)(F)F)cc2)cc1C(F)(F)F [IX-51]", "chromatographic logP": 3.51}

Consider the following items and state reported chromatographic logP for each.
1. O=C(Cn1cncc1Cl)c1ccc(Oc2ccc(C(F)(F)F)cc2)cc1 [IX-17]
2. N#Cc1cncn1CC(=O)c1ccccc1C(F)(F)F [IX-138]
3. O=C(Cn1cncc1F)c1cnc(Oc2ccc(C(F)(F)F)cc2)cc1Cl [IX-110]

Found:
[2.84, 2.07, 2.56]

Consider the following items and state reported chromatographic logP for each.
1. O=C(Cn1cncc1C(F)(F)F)c1ccc(Oc2ccc(Cl)cc2)cc1Cl [IX-57]
2. N#Cc1cncn1CC(=O)c1ccc(Oc2ccc(Cl)cc2F)nc1C(F)(F)F [IX-128]
3. O=C(Cn1cncc1Cl)c1ccc(Oc2ccc(Cl)cc2)cc1F [IX-45]

Found:
1. 4.03
2. 3.14
3. 2.75

Lookup: // Input: N#Cc1cncn1CC(=O)c1ccc(OC(F)(F)F)cc1 [IX-116] . Output its chromatographic logP only.
Found: 2.12
